- System: NCI-H23 lung
- protocol text: NCI-60 one-dose screen, 48 h (100 = growth as untreated, 0 = no growth, -100 = all killed)
- condition label: 10 µM unless noted
Compounds without any hit were thinned out: in the full panel of roughly 83,000, 20% have a hit.
Recorded growth, one value per entry.
Answer format: numeric, % implied, no suffix.

Answered cases to consult:
- compound: "Cc1nnc(/N=C2\\NC(=O)/C(=C/c3ccc(N(C)C)cc3)S2)s1"
  measured number: 81.7
- compound: "CCc1ccc(OCc2ccccc2C(=O)Nc2ccc3nc(C)cc(N)c3c2)cc1"
  measured number: -73.2
- compound: "COc1cc(NCC(=O)Nc2cc(Nc3cccc(C(F)(F)F)c3)ncn2)c(Cl)c(OC)c1Cl"
  measured number: 91.9
- compound: "Cc1cccc(C)c1NCc1nnc(-c2ccco2)o1"
  measured number: 89
- compound: "N#Cc1c(-c2ccc(F)cc2)nc(N/N=C/c2cccc(O)c2)nc1N1CCOCC1"
  measured number: 99.9
- compound: "CCOc1ccc(C2N(c3cc(OC)c(OC)c(OC)c3)C(=O)C2(F)F)cc1 (configuration not stated)"
  measured number: 33.6
- compound: "O=c1[nH]nc(-c2ccc(Br)cc2)c2sc(NC(=S)Nc3ccc(Cl)cc3)nc12"
  measured number: 84.1
- compound: "O=C1c2ccccc2C(=O)c2c1oc1c2c(=O)[nH]c2ccc(Cl)cc21"
  measured number: 21.2

Just so you know, measured growth for `Cc1ccc2nc3nc4ccc[nH]c4cc3c2c1` came out at 65.1

So for `O=C(Nc1nc2ccc(C(F)(F)F)cc2s1)c1cc(Cl)ccc1O` , the logged growth turned out to be -12

Looking up `NC(=O)C(O)(c1ccccc1)c1ccccc1` , I found its growth recorded as 101

The compound listed as `COc1cc(F)c(-c2nc3c(C)cccc3n2Cc2c(F)cccc2F)c(F)c1` shows growth equal to 79.8
